Each record here notes measured IC50 at 24 h.
Assay overview: Mammalian cytotoxicity assay (resazurin), COS-1 cells
Type: cell-based
Settings: African green monkey, read-out: Cytotox. COS-1

Molecule	IC50 at 24 h
CN(C)CCNC(=O)c1cccc(-c2ccc(O)c3c2C[C@H]2C[C@H]4[C@@H](N(C)C)C(O)=C(C(N)=O)C(=O)[C@@]4(O)C(O)=C2C3=O)c1	> 200 µM
CN(C)CCCc1cccc(-c2ccc(O)c3c2C[C@H]2C[C@H]4[C@H](N(C)C)C(O)=C(C(N)=O)C(=O)[C@@]4(O)C(O)=C2C3=O)c1	141 µM
CN(C)CCN(C)Cc1cccc(-c2ccc(O)c3c2C[C@H]2C[C@H]4[C@H](N(C)C)C(O)=C(C(N)=O)C(=O)[C@@]4(O)C(O)=C2C3=O)c1	> 126 µM
CN(C)CCNCc1cccc(-c2ccc(O)c3c2C[C@H]2C[C@H]4[C@H](N(C)C)C(O)=C(C(N)=O)C(=O)[C@@]4(O)C(O)=C2C3=O)c1	> 140 µM
CN(C)CCCCNCc1ccc(O)c2c1C[C@H]1C[C@H]3[C@H](N(C)C)C(O)=C(C(N)=O)C(=O)[C@@]3(O)C(O)=C1C2=O	> 138 µM
COCCCNC(=O)c1cccc(-c2ccc(O)c3c2CC2CC4[C@H](N(C)C)C(O)=C(C(N)=O)C(=O)[C@@]4(O)C(O)=C2C3=O)c1 (stereo partly drawn)	> 15.3 µM

====

Assay overview: Mammalian cytotoxicity assay (resazurin), COS-1 cells
Assay type: cell-based
Settings: African green monkey, read-out: Cytotox. COS-1

Molecule	IC50 at 24 h
CN(C)[C@@H]1C(O)=C(C(N)=O)C(=O)[C@@]2(O)C(O)=C3C(=O)c4c(O)ccc(C(=O)CN5CCN(C6CCCCC6)CC5)c4C[C@H]3C[C@@H]12 [BU]	> 123 µM
CC(C)N(CCNC(=O)c1cccc(-c2ccc(O)c3c2C[C@H]2C[C@H]4[C@H](N(C)C)C(O)=C(C(N)=O)C(=O)[C@@]4(O)C(O)=C2C3=O)c1)C(C)C [T]	> 41.4 µM
CN(C)[C@@H]1C(O)=C(C(N)=O)C(=O)[C@@]2(O)C(O)=C3C(=O)c4c(O)ccc(C(=O)Cn5ccnc5)c4C[C@H]3C[C@@H]12 [CF]	> 49.9 µM
CN(C)CCNC(=O)c1cccc(-c2cc(N(C)C)c3c(c2O)C(=O)C2=C(O)[C@]4(O)C(=O)C(C(N)=O)=C(O)[C@@H](N(C)C)[C@@H]4C[C@@H]2C3)c1 [V]	> 125 µM
CN(C)[C@@H]1C(O)=C(C(N)=O)C(=O)[C@@]2(O)C(O)=C3C(=O)c4c(O)ccc(-c5ccc(NC(=O)CNC(C)(C)C)cc5)c4C[C@H]3C[C@@H]12 [AF]	> 13.7 µM

====

System: gram negative bacteria
Assay overview: In vitro anti-bacterial activity assay (broth dilution MIC), gram negative bacteria
Type: cell-based, E. coli
Settings: Escherichia coli, 18 h, E. coli MG 1655; read-out: Median MIC's G− E. coli MG 1655

Compound	System under test	MIC
CN(C)[C@@H]1C(O)=C(C(N)=O)C(=O)[C@@]2(O)C(O)=C3C(=O)c4c(O)ccc(C(=O)CNCC(C)(C)C)c4C[C@H]3C[C@@H]12 [BP]	gram negative bacteria	32 µg/mL
COCCNCc1ccoc1-c1ccc(O)c2c1C[C@H]1C[C@H]3[C@H](N(C)C)C(O)=C(C(N)=O)C(=O)[C@@]3(O)C(O)=C1C2=O [BQ]	gram negative bacteria	1 µg/mL
COCCNCc1ccc(-c2ccc(O)c3c2C[C@H]2C[C@H]4[C@H](N(C)C)C(O)=C(C(N)=O)C(=O)[C@@]4(O)C(O)=C2C3=O)cc1 [BG]	gram negative bacteria	0.5 µg/mL

====

Tested on: gram negative bacteria
Assay overview: In vitro anti-bacterial activity assay (broth dilution MIC), gram negative bacteria
Format: cell-based, E. coli
Settings: Escherichia coli, 18 h, E. coli MG 1655; read-out: Median MIC's G− E. coli MG 1655
Experimental: Bacterial infections may be caused by a wide variety of gram positive and gram negative bacteria. Some of the compounds of the invention are useful as antibiotics against organisms which are resistant and/or sensitive to other tetracycline compounds. […] 50 μl of the cell suspensions were added to each well of microtiter plates. […] The plates were read with a microplate reader and were visually inspected when necessary. […]

Smiles structure	System under test	Readout units	MIC
CN(C)CC(=O)Nc1ccc(-c2ccc(O)c3c2C[C@H]2C[C@H]4[C@H](N(C)C)C(O)=C(C(N)=O)C(=O)[C@@]4(O)C(O)=C2C3=O)cc1	gram negative bacteria	µg/mL	2
CN(C)CCCCNC(=O)c1cccc(-c2ccc(O)c3c2C[C@H]2C[C@H]4[C@H](N(C)C)C(O)=C(C(N)=O)C(=O)[C@@]4(O)C(O)=C2C3=O)c1	gram negative bacteria	µg/mL	64
CN(C)[C@@H]1C(O)=C(C(N)=O)C(=O)[C@@]2(O)C(O)=C3C(=O)c4c(O)ccc(C(=O)CN5CCN(C6CCCCC6)CC5)c4C[C@H]3C[C@@H]12	gram negative bacteria	µg/mL	0.5
CN(C)[C@@H]1C(O)=C(C(N)=O)C(=O)[C@@]2(O)C(O)=C3C(=O)c4c(O)ccc(-c5cccc(CCCO)c5)c4C[C@H]3C[C@@H]12	gram negative bacteria	µg/mL	64
CN(C)CCc1ccc(O)c2c1C[C@H]1C[C@H]3[C@H](N(C)C)C(O)=C(C(N)=O)C(=O)[C@@]3(O)C(O)=C1C2=O	gram negative bacteria	µg/mL	4
CN(C)[C@@H]1C(O)=C(C(N)=O)C(=O)[C@@]2(O)C(O)=C3C(=O)c4c(O)ccc(-c5cccc(CCCN6CCCCC6)c5)c4C[C@H]3C[C@@H]12	gram negative bacteria	µg/mL	4

====

Assay overview: in vitro
Format: cell-based
Settings: Chinese hamster, Cytotox. CHO-K1
Value type: IC50 at 24 h

Compound	Value type	Recorded result
CN(C)CCNC(=O)c1cccc(-c2ccc(O)c3c2C[C@H]2C[C@H]4[C@H](N(C)C)C(O)=C(C(N)=O)C(=O)[C@@]4(O)C(O)=C2C3=O)c1	IC50 at 24 h	> 200 µM
CN(C)[C@@H]1C(O)=C(C(N)=O)C(=O)[C@@]2(O)C(O)=C3C(=O)c4c(O)ccc(-c5cccc(C(=O)NCCN)c5)c4C[C@H]3C[C@@H]12	IC50 at 24 h	> 46.8 µM
CN(C)[C@@H]1C(O)=C(C(N)=O)C(=O)[C@@]2(O)C(O)=C3C(=O)c4c(O)ccc(-c5cccc(C(N)=O)c5)c4C[C@H]3C[C@@H]12	IC50 at 24 h	> 15.7 µM
CN(C)CCN(C)C(=O)c1cccc(-c2ccc(O)c3c2C[C@H]2C[C@H]4[C@H](N(C)C)C(O)=C(C(N)=O)C(=O)[C@@]4(O)C(O)=C2C3=O)c1	IC50 at 24 h	> 137 µM
CN(C)C(=O)c1cccc(-c2ccc(O)c3c2C[C@H]2C[C@H]4[C@H](N(C)C)C(O)=C(C(N)=O)C(=O)[C@@]4(O)C(O)=C2C3=O)c1	IC50 at 24 h	> 9.4 µM
CN(C)[C@@H]1C(O)=C(C(N)=O)C(=O)[C@@]2(O)C(O)=C3C(=O)c4c(O)ccc(-c5cccc(C(=O)NCCN6CCOCC6)c5)c4CC3CC12 (stereo partly drawn)	IC50 at 24 h	> 13.6 µM

====

System: gram negative bacteria
Assay overview: In vitro anti-bacterial activity assay (broth dilution MIC), gram negative bacteria
Format: cell-based, E. coli
Settings: Escherichia coli, ATCC25922, 18 h, E. coli ATCC 25922; read-out: Median MIC's G− E. coli ATCC 25922

Smiles structure	MIC / µg/mL
CN(C)CCNCc1cccc(-c2ccc(O)c3c2C[C@H]2C[C@H]4[C@H](N(C)C)C(O)=C(C(N)=O)C(=O)[C@@]4(O)C(O)=C2C3=O)c1	4
CN(C)[C@@H]1C(O)=C(C(N)=O)C(=O)[C@@]2(O)C(O)=C3C(=O)c4c(O)ccc(-c5cccc(C(=O)NCCN6CCCC6)c5)c4C[C@H]3C[C@@H]12	64
CN(C)[C@@H]1C(O)=C(C(N)=O)C(=O)[C@@]2(O)C(O)=C3C(=O)c4c(O)ccc(C(=O)CNCc5cccn5C)c4C[C@H]3C[C@@H]12	4
COc1ccc(CN(C)C)cc1-c1ccc(O)c2c1C[C@H]1C[C@H]3[C@H](N(C)C)C(O)=C(C(N)=O)C(=O)[C@@]3(O)C(O)=C1C2=O	0.5
CN(C)[C@@H]1C(O)=C(C(N)=O)C(=O)[C@@]2(O)C(O)=C3C(=O)c4c(O)ccc(C(=O)CNc5cccnc5)c4C[C@H]3C[C@@H]12	64
CN(C)CCC(=O)c1ccc(O)c2c1C[C@H]1C[C@H]3[C@H](N(C)C)C(O)=C(C(N)=O)C(=O)[C@@]3(O)C(O)=C1C2=O	8
